Biological target: RORγ LBD-GST tagged (Homo sapiens, UniProt P51449)
Construct: RORγ LBD-GST tagged (Cat No. RORC-114H, Creative Biomart); purchased Creative Biomart RORC-114H
Sequence (P51449 269-508 limits assumed): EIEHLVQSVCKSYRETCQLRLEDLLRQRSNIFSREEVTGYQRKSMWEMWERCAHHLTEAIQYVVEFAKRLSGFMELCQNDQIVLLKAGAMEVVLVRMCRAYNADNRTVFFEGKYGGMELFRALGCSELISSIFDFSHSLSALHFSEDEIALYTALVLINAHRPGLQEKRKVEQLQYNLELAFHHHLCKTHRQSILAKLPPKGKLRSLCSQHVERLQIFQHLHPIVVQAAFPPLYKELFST
Test: LanthaScreen TR-FRET RORγ coactivator assay
Type: biochemical
Conditions: Fluorescein-D22 coactivator peptide, 1 hour room temperature
Property label: IC50 (µM)

(I) CS(=O)(=O)c1ccc(C(CO)c2nc3c(Cl)c(-c4ccccc4OC(F)F)c(Cl)cc3[nH]2)cc1 (stereo not shown)
(II) CCS(=O)(=O)c1ccc(C(CO)c2nc3c(Cl)c(-c4ccccc4OC(F)F)c(Cl)cc3[nH]2)c(F)c1 (stereo not shown)
Lower IC50: I or II ? Provide the label of your selected option as the answer.
II

(A) CCS(=O)(=O)c1ccc(C(O)c2nc3c(Cl)c(-c4ccccc4CCC(F)(F)F)c(Cl)cc3[nH]2)cc1 (stereo not shown)
(B) O=S(=O)(CC1CC1)c1ccc(C(O)c2nc3c(Cl)c(-c4ccccc4OC(F)(F)F)c(Cl)cc3[nH]2)cc1 (stereo not shown)
Lower IC50: A or B ? Provide the label of your selected option as the answer.
B

Cited source: patent US12187684B2
